tested on: chickweed; test: Test B preemergence/postemergence greenhouse plant response rating 0 to 10; assay type: in vivo, Stellaria media; details: PREEMERGENCE, Rate 50 g/ha; 0 to 10 scale
Each entry below carries its recorded Plant response rating, Chickweed.
Give the figure only, with no unit attached.

Reference set (3 entries):
COMPOUND | SYSTEM | Plant response rating, Chickweed
COCCOc1cc(-c2nn3c(c2Cl)CCCC3)c(Cl)cc1Cl [Compound 72] | chickweed | 0
CCCCN1C(=O)COc2cc(F)c(-c3nn4c(c3Cl)CCCC4)cc21 [Compound 57] | chickweed | 9
COCCN1C(=O)COc2cc(F)c(-c3nn4c(c3Cl)CCCC4)cc21 [Compound 53] | chickweed | 10

Measured Plant response rating, Chickweed, Oc1cc(-c2nn3c(c2Br)CCCC3)c(F)cc1Cl [Compound 81] : 0

Measured Plant response rating, Chickweed, CC(C)OC(=O)c1cc(-c2nn3c(c2Cl)CCCC3)c(F)cc1Cl [Compound 44] : 9

Measured Plant response rating, Chickweed, COCOc1cc(-c2nn3c(c2Br)CCCC3)c(F)cc1Cl [Compound 65] : 1

Measured Plant response rating, Chickweed, CCC(=O)Oc1cc(-c2nn3c(c2Cl)CCCC3)c(F)cc1Cl [Compound 47] : 0

Measured Plant response rating, Chickweed, C=C(Cl)COc1cc(-c2nn3c(c2Cl)CCCC3)c(F)cc1Cl [Compound 40] : 0

Measured Plant response rating, Chickweed, CC(C)Oc1cc(-c2nn3c(c2Cl)CCCC3)c(F)cc1Cl [Compound 21] : 2

====

system: rice; test: Test C flood test plant response rating 0 to 100; format: in vivo, Oryza sativa; settings: flood test species listed under POSTEMERGENCE, 125 g/ha, 0 to 100 scale
Each entry below carries its recorded Plant response rating Rice Japonica.
Give the figure only, with no unit attached.

Reference set (3 entries):
COMPOUND | RECORDED VALUE
CCOCOc1cc(-c2nn3c(c2Cl)CCCC3)c(F)cc1Cl | 40
C=CCN1C(=O)COc2cc(F)c(-c3nn4c(c3Br)CCCC4)cc21 | 85
C#CC(C)Oc1cc(-c2nn3c(c2Cl)CCCC3)c(F)cc1Cl (stereo not shown) | 50

In the following, a different compound is considered.
Measured Plant response rating Rice Japonica, `CC(C)OC(=O)COc1cc(-c2nn3c(c2Cl)CCCC3)c(F)cc1Cl` : 30

====

test system: dallisgrass; test: Test G preemergence/postemergence greenhouse plant response rating 0 to 100; assay type: in vivo, Paspalum dilatatum; conditions: POSTEMERGENCE, Rate 125 g/ha, 0 to 100 scale
Each entry below carries its recorded Plant response rating, Dallisgrass.
Give the figure only, with no unit attached.

Reference set (4 entries):
COMPOUND | Plant response rating, Dallisgrass
CCCN1C(=O)COc2cc(F)c(-c3nn4c(c3Cl)CCCC4)cc21 [Compound 32] | 0
Fc1cc(Cl)c(OCc2ccccc2)cc1-c1nn2c(c1Cl)CCCC2 [Compound 22] | 0
CCCOc1cc(-c2nn3c(c2Cl)CCCC3)c(F)cc1Cl [Compound 23] | 0
C#CCOc1cc(-c2nn3c(c2Br)CCCC3)c(F)cc1Cl [Compound 26] | 0

In the following, a different compound is considered.
Measured Plant response rating, Dallisgrass, COC(=O)C(C)Oc1cc(-c2nn3c(c2Cl)CCCC3)c(F)cc1Cl (centres unmarked) [Compound 28] : 0

Reference for the values: patent US6358885B1
